Measured values drawn from the supplement of paper PMC9170038 for this set.

tested on: MS2 coat protein; test: apparent KD of MS2 coat protein; higher = weaker reporter binding; conditions: Eterna round: R107; input ligand: arginine 13.2 mM
measure-name: apparent KD of MS2 coat protein

Identify the measured apparent KD of MS2 coat protein of UAAACUACACAUGAGGAUCACCCAUGUGGCCGAGGACCGGUACGGCCGCCACUCGUGUGUUAAUAAUAGAACUGCAAGGUUCUGU [Enindidiso] for MS2 coat protein. 75.6 nM

// next record GGUGGACUUUCGGCCGCCACUGAGAGAGUCGUGUGAACAUGAGGAUCACCCAUGUAAUAUAUAUACAGGACCGGGAGGGUUGUCC [4.O] 20.6 nM

What about this sequence? UGUAUGUGAUCUGAUACCAGUCCAACUGGUAAAACCUGAGGAUCACCCGGGUAAAAUUGGGACCCUUGGCAGCAGAUCGCAUACU 201 nM

Similarly, AACAUGAGGAUCACCCAUGUAAAACCGGUACGAGGACCGGUACGGCCGCCACUCGAAACAUGAGGAUCACCCAUGUAAUAAUAUU [Same State Trypophan A GF 21] ? 35.2 nM

What about GGUAACUCUACGGCCGCCACUGAACAUGAGGAUCACCCAUGUAAUGUUCAGAUUUUUUUUUUUUACAGGACCGGGUAGUGUUACC [Tryptophan B 4] ? 107 nM

What about UUUUUUAACUGAAGGAGCGUCACAUGAGGAUCACCCAUGUAUUAGAUGAGAAGGAUCUUGUGGCAGGUAGGUCGCAGAGGAAGGG [e-argB-V] ? 99.6 nM
